Target: Bile acid receptor (Homo sapiens)
Test: Effective concentration against farnesoid X receptor (FXR)
Measure Name: EC50 (nM)

[
  {
    "Structure Notation": "COC(=O)/C=C/c1cccc(N(Cc2ccc(/C=C/C(=O)O)cc2)C(=O)C2CCCCC2)c1",
    "Target Under Test": "Bile acid receptor (Homo sapiens)",
    "Measure Name": "EC50",
    "Value Measured": 1000
  }
]

[I] COC(=O)/C=C/c1cccc(N(Cc2ccc(-c3cccc(Cl)c3)cc2)C(=O)NC(C)C)c1
[II] COC(=O)/C=C/c1cccc(N(Cc2ccc(-c3cc(Cl)ccc3OC)cc2)C(=O)C2CCCCC2)c1
[III] COC(=O)/C=C/c1cccc(N(Cc2ccc(-c3cccc(OC(F)(F)F)c3)cc2)C(=O)C2CCCCC2)c1
[IV] COC(=O)/C=C/c1cccc(N(Cc2ccc(-c3ccc(F)c(Cl)c3)cc2)C(=O)C(C)C)c1
[V] COC(=O)/C=C/c1cccc(N(Cc2ccc(-c3cccc(OC)c3)cc2)C(=O)C2CCCCC2)c1
Query: Order each entry by recorded EC50, climbing from the minimum. Please list the labels in the order you were asked to rank them.
Result: V, IV, II, III, I
(V: 77.6 nM, IV: 129 nM, II: 234 nM, III: 417 nM, I: 1410 nM)

----------
Biological target: UniProt:Q96RI1
Sequence (Q96RI1 whole entry): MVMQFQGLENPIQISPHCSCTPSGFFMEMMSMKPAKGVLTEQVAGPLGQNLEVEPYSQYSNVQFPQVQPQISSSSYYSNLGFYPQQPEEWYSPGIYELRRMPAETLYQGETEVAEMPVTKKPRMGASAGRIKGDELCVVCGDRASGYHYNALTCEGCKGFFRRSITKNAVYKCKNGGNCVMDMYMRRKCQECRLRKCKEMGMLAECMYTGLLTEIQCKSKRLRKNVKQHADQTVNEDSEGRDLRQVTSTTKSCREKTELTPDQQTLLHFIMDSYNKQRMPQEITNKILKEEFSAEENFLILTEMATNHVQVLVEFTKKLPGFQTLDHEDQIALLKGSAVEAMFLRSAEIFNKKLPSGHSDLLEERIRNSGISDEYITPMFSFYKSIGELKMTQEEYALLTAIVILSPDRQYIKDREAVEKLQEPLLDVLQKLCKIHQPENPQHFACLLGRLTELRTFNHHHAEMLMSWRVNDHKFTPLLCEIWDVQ
Test: Effective concentration against farnesoid X receptor (FXR)
pEC50: −log10 of the molar value.
Measure Name: pEC50

[
  {
    "Structure Notation": "COC(=O)/C=C/c1cccc(N(Cc2ccc(-c3c(OC)cccc3OC)cc2)C(=O)C2CCCCC2)c1",
    "Value Measured": 7.11
  },
  {
    "Structure Notation": "COC(=O)/C=C/c1cccc(N(Cc2ccc(-c3ccc(C)s3)cc2)C(=O)C2CCCCC2)c1",
    "Value Measured": 6.69
  },
  {
    "Structure Notation": "COC(=O)/C=C/c1cccc(N(Cc2ccc(/C=C/c3ccccc3F)cc2)C(=O)C2CCCCC2)c1",
    "Value Measured": 7.19
  }
]

[I] COC(=O)/C=C/c1cccc(N(Cc2ccc(/C=C/c3cc(C(F)(F)F)cc(C(F)(F)F)c3)cc2)C(=O)C2CCCCC2)c1
[II] COC(=O)/C=C/c1cccc(N(Cc2ccc(/C=C/c3cccc(F)c3)cc2)C(=O)C2CCCCC2)c1
[III] COC(=O)/C=C/c1cccc(N(Cc2ccc(/C=C/c3c(Cl)cccc3Cl)cc2)C(=O)C2CCCCC2)c1
[IV] COC(=O)/C=C/c1cccc(N(Cc2ccc(/C=C/c3ccccn3)cc2)C(=O)C(C)C)c1
Query: Order each entry by recorded pEC50, climbing from the minimum. Please list the labels in the order you were asked to rank them.
Result: I, IV, III, II

----------
Molecular target: Bile acid receptor (Homo sapiens, UniProt Q96RI1)
Assay: Effective concentration against farnesoid X receptor (FXR)
pEC50: −log10 of the molar value.
Measure Name: pEC50

See these solved cases before continuing.
[
  {
    "Structure Notation": "COC(=O)/C=C/c1cccc(N(Cc2ccc(/C=C/c3ccccn3)cc2)C(=O)C2CCCCC2)c1",
    "Value Measured": 6.51
  },
  {
    "Structure Notation": "COC(=O)/C=C/c1cccc(N(Cc2ccc(/C=C/c3scnc3C)cc2)C(=O)C2CCCCC2)c1",
    "Value Measured": 6.64
  },
  {
    "Structure Notation": "COC(=O)/C=C/c1cccc(N(Cc2ccc(/C=C/c3ccc(F)cc3)cc2)C(=O)C2CCCCC2)c1",
    "Value Measured": 6.73
  }
]

[I] COC/C=C/c1ccc(CN(C(=O)C2CCCCC2)c2cccc(/C=C/C(=O)OC)c2)cc1
[II] COC(=O)/C=C/c1cccc(N(Cc2ccc(-c3ccc(N(C)C)cc3)cc2)C(=O)C2CCCCC2)c1
Query: API: POST /compare with I and II ; response names the item with higher pEC50. Reply with the label of the item you choose.
Result: II
(II: 7.60, I: 6.63)

----------
Molecular target: UniProt Q96RI1
Sequence (Q96RI1 whole entry): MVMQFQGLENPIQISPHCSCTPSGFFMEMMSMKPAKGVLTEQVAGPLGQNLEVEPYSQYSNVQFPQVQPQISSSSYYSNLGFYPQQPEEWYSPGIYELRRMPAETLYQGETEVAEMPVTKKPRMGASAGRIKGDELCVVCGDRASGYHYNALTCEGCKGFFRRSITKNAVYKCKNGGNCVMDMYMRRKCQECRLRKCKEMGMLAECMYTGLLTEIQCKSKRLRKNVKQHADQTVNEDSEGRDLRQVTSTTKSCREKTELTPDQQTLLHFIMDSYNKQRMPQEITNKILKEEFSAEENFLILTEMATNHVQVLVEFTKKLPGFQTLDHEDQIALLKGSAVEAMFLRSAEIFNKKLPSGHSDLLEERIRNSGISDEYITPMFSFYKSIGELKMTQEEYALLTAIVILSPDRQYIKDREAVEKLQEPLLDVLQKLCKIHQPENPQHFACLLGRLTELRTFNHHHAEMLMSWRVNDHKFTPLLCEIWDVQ
Test: Effective concentration against farnesoid X receptor (FXR)
pEC50: −log10 of the molar value.
Measure Name: pEC50

[
  {
    "Structure Notation": "COC(=O)/C=C/c1cccc(N(Cc2ccc(/C=C/c3ccc(OC)cc3)cc2)C(=O)C2CCCCC2)c1",
    "pEC50": 6.68
  },
  {
    "Structure Notation": "CCOC/C=C/c1cccc(N(Cc2ccc(/C=C/C(=O)OC(C)(C)C)cc2)C(=O)C2CCCCC2)c1",
    "pEC50": 6.66
  },
  {
    "Structure Notation": "COC(=O)/C=C/c1cccc(N(Cc2ccc(/C=C/c3scnc3C)cc2)C(=O)C(C)C)c1",
    "pEC50": 6.64
  }
]

[A] COC/C=C/c1cccc(N(Cc2ccc(/C=C/C(=O)OC(C)(C)C)cc2)C(=O)C2CCCCC2)c1
[B] COC(=O)/C=C/c1cccc(N(Cc2ccc(-c3ccc4c(c3)OCO4)cc2)C(=O)C2CCCCC2)c1
Query: For the pair A and B , which entry has the numerically smaller recorded pEC50? Reply with the label of the item you choose.
Result: A
(A: 6.61, B: 7.42)

----------
Molecular target: UniProt:Q96RI1
Assay: Effective concentration against farnesoid X receptor (FXR)
Measure Name: EC50 (nM)

See these solved cases before continuing.
[
  {
    "Structure Notation": "COC(=O)/C=C/c1cccc(N(Cc2ccc(-c3ccc4c(c3)OCO4)cc2)C(=O)C(C)C)c1",
    "Target Under Test": "UniProt:Q96RI1",
    "EC50 / nM": 19.1
  },
  {
    "Structure Notation": "COC(=O)/C=C/c1cccc(N(Cc2ccc(/C=C/c3c(Cl)cccc3Cl)cc2)C(=O)C2CCCCC2)c1",
    "Target Under Test": "UniProt:Q96RI1",
    "EC50 / nM": 151
  },
  {
    "Structure Notation": "COC(=O)/C=C/c1cccc(N(Cc2ccc(/C=C/c3cccc(F)c3)cc2)C(=O)NC(C)C)c1",
    "Target Under Test": "UniProt:Q96RI1",
    "EC50 / nM": 468
  },
  {
    "Structure Notation": "COC(=O)/C=C/c1cccc(N(Cc2ccc(-c3cccc(OC)c3)cc2)C(=O)C(C)C)c1",
    "Target Under Test": "UniProt:Q96RI1",
    "EC50 / nM": 72.4
  },
  {
    "Structure Notation": "COC(=O)/C=C/c1cccc(N(Cc2ccc(/C=C/c3ccccc3F)cc2)C(=O)C(C)C)c1",
    "Target Under Test": "UniProt:Q96RI1",
    "EC50 / nM": 70.8
  }
]

[a] COC(=O)/C=C/c1cccc(N(Cc2ccc(/C=C/c3cccc(Cl)c3)cc2)C(=O)C(C)C)c1
[b] COC(=O)/C=C/c1cccc(N(Cc2ccc(/C=C/c3ccccc3)cc2)C(=O)C(C)C)c1
Query: API: POST /compare with a and b ; response names the item with higher EC50. Reply with the label of the item you choose.
Result: a
